subject of test: JAK1 (Homo sapiens (Human))
test name: Enzyme assay (Assay Example^a 1), JAK1
Type: biochemical
assay setup: ATP 100 μM
Define the label as Satisfied when IC50 is strictly less than 0.008 µM and as Not satisfied in all remaining cases.

compound: NC(=O)c1ccc(CN2CCC(c3nnn4cnc5[nH]ccc5c34)CC2)cc1
label: Not satisfied
//
compound: N#CCNS(=O)(=O)C[C@H]1CC[C@H](c2nnn3cnc4[nH]ccc4c23)CC1
label: Satisfied
//
compound: O=C(O)C1CN(C[C@H]2CC[C@H](c3nnn4cnc5[nH]ccc5c34)CC2)C1
label: Satisfied
//
compound: N#Cc1cc(NC[C@H]2CC[C@H](c3nnn4cnc5[nH]ccc5c34)CC2)ccc1Cl
label: Not satisfied
//
compound: O=C1SCCC1NC[C@H]1CC[C@H](c2nnn3cnc4[nH]ccc4c23)CC1 (some centres unmarked)
label: Satisfied

input: Bench note: check whether `N#CCC(=O)N(CC#N)C[C@H]1CC[C@H](c2nnn3cnc4[nH]ccc4c23)CC1` shows IC50 below 0.008 µM
output: Satisfied

input: Threshold test, IC50 < 0.008 µM: FC(F)(F)C(F)(F)CN[C@H]1CC[C@H](c2nnn3cnc4[nH]ccc4c23)CC1 [383b]
output: Satisfied

input: Here's an entry: `OC[C@@H]1CCCN1C[C@H]1CC[C@H](c2nnn3cnc4[nH]ccc4c23)CC1` . Is its IC50 below 0.008 µM?
output: Not satisfied

----------
A collection of compounds and their measured IC50
subject of test: JAK1 (Homo sapiens (Human))
test name: Enzyme assay (Assay Example^a 1), JAK1
Format: biochemical
assay setup: ATP 100 μM
# output: bare number, implied unit µM

Solved entries:
compound: N#CC1(c2ccccc2)CCN(C[C@H]2CC[C@H](c3nnn4cnc5[nH]ccc5c34)CC2)CC1
assay value: 0.071

compound: FC1(F)Oc2ccc(CN3CCC(c4nnn5cnc6[nH]ccc6c45)CC3)cc2O1
assay value: 0.0025

compound: O[C@@H]1Cc2ccccc2[C@@H]1NC1CCC(c2nnn3cnc4[nH]ccc4c23)CC1 (mixture of isomers)
assay value: 0.013

Sure, the documented IC50 for `O=c1[nH]c(C2CCCCC2)c2c3cc[nH]c3ncn12` is 0.03

----------
subject of test: Tyk2 (Homo sapiens (Human), UniProt P29597)
Sequence (P29597 whole entry): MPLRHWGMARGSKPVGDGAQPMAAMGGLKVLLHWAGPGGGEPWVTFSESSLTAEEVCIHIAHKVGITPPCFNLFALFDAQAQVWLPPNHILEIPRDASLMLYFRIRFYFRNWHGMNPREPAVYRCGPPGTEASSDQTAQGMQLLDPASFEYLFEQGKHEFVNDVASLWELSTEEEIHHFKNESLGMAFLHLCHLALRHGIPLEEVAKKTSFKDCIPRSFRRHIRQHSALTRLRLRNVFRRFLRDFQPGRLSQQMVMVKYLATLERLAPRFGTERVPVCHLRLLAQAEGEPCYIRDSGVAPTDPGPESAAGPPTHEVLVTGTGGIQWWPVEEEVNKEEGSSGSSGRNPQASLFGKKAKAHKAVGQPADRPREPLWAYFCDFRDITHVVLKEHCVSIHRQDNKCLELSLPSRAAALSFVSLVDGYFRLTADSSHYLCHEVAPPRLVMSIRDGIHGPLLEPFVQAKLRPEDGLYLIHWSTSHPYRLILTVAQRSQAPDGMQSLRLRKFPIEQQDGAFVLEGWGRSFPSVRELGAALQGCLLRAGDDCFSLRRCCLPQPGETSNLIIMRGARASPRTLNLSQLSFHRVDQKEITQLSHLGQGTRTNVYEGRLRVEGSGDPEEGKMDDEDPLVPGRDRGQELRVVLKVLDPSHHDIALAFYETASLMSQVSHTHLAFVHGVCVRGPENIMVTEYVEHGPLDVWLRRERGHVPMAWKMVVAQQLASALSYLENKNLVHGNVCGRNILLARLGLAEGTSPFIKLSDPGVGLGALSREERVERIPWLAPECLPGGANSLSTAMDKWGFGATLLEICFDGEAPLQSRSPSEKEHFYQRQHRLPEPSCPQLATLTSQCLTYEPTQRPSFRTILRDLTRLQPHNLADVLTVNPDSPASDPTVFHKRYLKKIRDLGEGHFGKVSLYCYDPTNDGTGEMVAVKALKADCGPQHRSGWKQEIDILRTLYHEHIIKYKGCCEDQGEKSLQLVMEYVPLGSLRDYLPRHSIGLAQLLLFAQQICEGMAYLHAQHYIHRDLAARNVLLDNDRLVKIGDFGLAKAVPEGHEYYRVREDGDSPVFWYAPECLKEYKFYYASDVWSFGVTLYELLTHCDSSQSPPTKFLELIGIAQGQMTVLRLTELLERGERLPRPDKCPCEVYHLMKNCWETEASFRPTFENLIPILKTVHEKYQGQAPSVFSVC
test name: Tyk2 enzyme assay (Assay Example^b 1)
assay setup: IC50 (μM) TYK2, Table^b 80; ATP 100 μM
Measured IC50 accompanies every entry in the list below.

// solved cases for IC50 follow
compound: O=C1NCc2cnc3[nH]ccc3c2N1C1CCN(Cc2cncs2)CC1
IC50: 0.99 µM
--
compound: C[C@@H]1CCN(C2CCCC2)C[C@@H]1n1ccc(=O)c2cnc3[nH]ccc3c21 (racemic)
IC50: > 1 µM
--
compound: O=C1NCc2cnc3[nH]ccc3c2N1C1CCN(S(=O)(=O)Cc2ccccc2)CC1
IC50: > 1 µM
--
compound: O=c1ccn(C2CCN(Cc3ccc(C(F)(F)F)cc3)CC2)c2c1cnc1[nH]ccc12 [Synthetic Example^b 56]
IC50: > 1 µM

Given item `O=C1NCc2cnc3[nH]ccc3c2N1C1CCNCC1` , the value recorded as its IC50 is > 1 µM

// sample `O=C(Nc1nncs1)N1CCC(N2C(=O)NCc3cnc4[nH]ccc4c32)CC1` , its IC50 was 0.17 µM

IC50 in this record for CC1CCN(C(=O)C2CCC(C(C)(C)C)CC2)CC1n1ccc(=O)c2cnc3[nH]ccc3c21 (single isomer, unassigned) [Synthetic Example^b 48a] : > 1 µM
